Values compiled from ChEMBL document CHEMBL5291721.

Data export: AC50 values recorded with UniProt Q01959.
Sequence (Q01959 whole entry): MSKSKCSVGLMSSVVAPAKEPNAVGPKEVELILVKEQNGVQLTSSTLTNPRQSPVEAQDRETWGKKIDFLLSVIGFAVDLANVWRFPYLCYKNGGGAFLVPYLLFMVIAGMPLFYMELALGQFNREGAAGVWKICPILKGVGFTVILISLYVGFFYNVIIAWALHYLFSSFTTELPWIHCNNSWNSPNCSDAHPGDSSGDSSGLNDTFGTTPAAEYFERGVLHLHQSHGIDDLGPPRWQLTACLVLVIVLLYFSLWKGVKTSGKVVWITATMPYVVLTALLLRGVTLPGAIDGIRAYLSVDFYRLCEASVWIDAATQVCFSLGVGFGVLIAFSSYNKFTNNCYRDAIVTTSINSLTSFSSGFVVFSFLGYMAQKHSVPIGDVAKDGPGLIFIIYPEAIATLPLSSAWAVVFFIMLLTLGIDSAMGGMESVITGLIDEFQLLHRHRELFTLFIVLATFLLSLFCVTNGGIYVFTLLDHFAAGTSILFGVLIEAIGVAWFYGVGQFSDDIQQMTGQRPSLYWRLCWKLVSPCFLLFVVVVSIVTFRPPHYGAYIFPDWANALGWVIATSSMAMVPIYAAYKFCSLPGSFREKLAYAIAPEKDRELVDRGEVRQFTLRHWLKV

Problem: Name the reported AC50 value associated with the compound Cn1c(=O)c2c(ncn2CCOC(=O)C(C)(C)Oc2ccc(Cl)cc2)n(C)c1=O [THEOFIBRATE]
Result: > 30 µM

Problem: Name the reported AC50 value associated with the compound COc1cc(C(=O)OCc2cccc(COC(=O)c3cc(OC)c(OC)c(OC)c3)n2)cc(OC)c1OC [PIROZADIL]
Result: > 30 µM

Problem: Name the reported AC50 value associated with the compound CCOC(=O)C(C)(C)Oc1ccc(Cl)cc1 [CLOFIBRATE]
Result: > 30 µM

Problem: Name the reported AC50 value associated with the compound C=CCN1CCc2nc(N)sc2CC1 [TALIPEXOLE]
Result: > 30 µM

Problem: Name the reported AC50 value associated with the compound Cc1onc(-c2c(F)cccc2Cl)c1C(=O)N[C@@H]1C(=O)N2[C@@H]1SC(C)(C)[C@@H]2C(=O)O [FLOXACILLIN]
Result: > 30 µM
